Hey, just so you know, these numbers are from ChEMBL document CHEMBL3745695.

Target: CYP3A4 (Homo sapiens)
Sequence (P08684 whole entry): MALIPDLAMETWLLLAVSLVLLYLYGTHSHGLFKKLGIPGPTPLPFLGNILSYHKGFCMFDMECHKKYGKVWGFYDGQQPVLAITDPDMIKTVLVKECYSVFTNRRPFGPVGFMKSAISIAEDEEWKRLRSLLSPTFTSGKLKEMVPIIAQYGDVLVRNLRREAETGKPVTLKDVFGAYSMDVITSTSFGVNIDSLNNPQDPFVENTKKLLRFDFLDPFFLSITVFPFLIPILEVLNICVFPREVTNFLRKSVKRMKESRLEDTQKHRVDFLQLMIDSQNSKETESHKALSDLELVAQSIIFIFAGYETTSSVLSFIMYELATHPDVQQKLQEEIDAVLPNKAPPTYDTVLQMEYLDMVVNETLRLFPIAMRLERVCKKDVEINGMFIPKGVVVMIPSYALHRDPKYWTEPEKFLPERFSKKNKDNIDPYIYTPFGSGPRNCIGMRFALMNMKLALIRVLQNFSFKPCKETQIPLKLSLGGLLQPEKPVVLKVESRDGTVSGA
Experiment: Metabolic stability assessed as recombinant human CYP3A4-mediated drug degradation by measuring compound remaining incubated for 1 hr by MS analysis
Type: ADME
Details: read-out: Stability
Recorded remaining at 1 h values for a group of compounds are listed next.
Quick reminder: number only, in %, skip the unit.

[
  {
    "Compound": "COc1ccc(CN2CCc3nc(-c4ccccn4)nc(N4CCC(C(N)=O)CC4)c3C2)cc1",
    "remaining at 1 h / %": 78
  },
  {
    "Compound": "COc1ccc(Cl)cc1Nc1nc(-c2sc(NC(=O)c3ccccc3)nc2C)cs1",
    "remaining at 1 h / %": 55
  },
  {
    "Compound": "CN1CCN(CCCNc2nc(-c3ccccn3)nc3c2CN(Cc2ccccc2)CC3)CC1",
    "remaining at 1 h / %": 100
  },
  {
    "Compound": "CN(C)CCN1CCN(c2nc(-c3ccccn3)nc3c2CN(Cc2ccsc2)CC3)CC1",
    "remaining at 1 h / %": 66
  },
  {
    "Compound": "OC1CCCN(c2nc(-c3ccccn3)nc3c2CN(Cc2ccccc2)CC3)C1 (configuration not stated)",
    "remaining at 1 h / %": 25
  }
]

Asked: Query (compound): `CN1CCN(CCCNc2nc(-c3cccnc3)nc3c2CN(Cc2ccccc2)CC3)CC1` ; field requested: remaining at 1 h
Given back: 15
